Recorded Population Healthy Nuclei (%) values for a group of compounds are listed next.
System: HEK-293T
Assay: Multiplex assay against HEK293T
Format: toxicity, cell-based
Details: human, 24 h, 10 µM, compound concentration 10 uM, replicate 1

COCCn1c(C)c(C)s/c1=N\C(=O)C1C(C)(C)C1(C)C; 61%
CN1CCN2c3ccccc3Cc3ccccc3C2C1.Cl (stereo not drawn) [MIANSERIN HYDROCHLORIDE]; 77%
C=CCN1C[C@H](C(=O)N(CCCN(C)C)C(=O)NCC)C[C@@H]2c3cccc4[nH]cc(c34)C[C@H]21; 77%

Exam item: Fill in the blank: the reported Population Healthy Nuclei (%) of O=C(NCCNCC(O)COc1ccc(O)cc1)N1CCOCC1.O=C(NCCNCC(O)COc1ccc(O)cc1)N1CCOCC1.O=C(O)/C=C/C(=O)O (stereo not drawn) [XAMOTEROL FUMARATE] is ____.
Marked response: 79%

Exam item: I would be grateful if you could share the reported Population Healthy Nuclei (%) for CN(C)C(=O)Cn1cc(-c2ccc(-c3nnc4ccccn34)cc2)cn1 .
Marked response: 78%

Exam item: // Population Healthy Nuclei (%) lookup, key: CC(C)C[C@H](CO)Nc1nc(S[C@@H](C)c2ccccc2)nc2nc(N)sc12
Marked response: 73%

Exam item: Fill in the blank: the reported Population Healthy Nuclei (%) of Nc1nc(CC(=O)Nc2ccc(CCNC[C@H](O)c3ccccc3)cc2)cs1 is ____.
Marked response: 77%

Exam item: So what does the record say about Population Healthy Nuclei (%) for CN1CCN(c2ccc(Nc3c4ccccc4nc4ccccc34)cc2)CC1.Cl.Cl.O ?
Marked response: 69%

====

Recorded Population Mitochondria Different-Phenotype (%) values for a group of molecules are listed next.
Test system: HEK-293T
Assay: Multiplex assay against HEK293T
Assay type: toxicity, cell-based
Details: human, 12 h, 10 µM, compound concentration 10 uM, replicate 1
Give the value in % but do not write % after it.

Worked cases, answers included:
COc1cc2nc(N3CCN(C(=O)COc4c(OC)cccc4C(C)C)CC3)nc(N)c2cc1OC.Cl.Cl; 74
CC(C)(C)c1ccc(CSc2cnn(C(C)(C)C)c(=O)c2Cl)cc1; 75

Turning to the following molecule.
Exam item: Which Population Mitochondria Different-Phenotype (%) is reported for this molecule? COC(c1ccccc1)(c1ccccc1)[C@H](Oc1nc(C)cc(C)n1)C(=O)O
Marked response: 47

====

Tested on: U2OS
Assay: Multiplex assay against U2OS
Type: toxicity, cell-based
Settings: human, 48 h, 10 µM, compound concentration 10 uM, replicate 1
Each entry below carries its recorded Population Apoptotic (%).
State the answer as a number, implicitly in %.

CCn1c(-c2nc3cc(C(=O)N4CCCC(N)C4)ccc3n2C)cc2ccccc21.Cl (stereo unspecified); 78
Nc1nc(-c2ccco2)c2cnn(Cc3ccccc3F)c2n1; 95
O=C(O)CCC/C=C\CC1C(O)CC(O)C1/C=C/C(O)COc1cccc(Cl)c1 (stereo unspecified); 91
Cn1cc(C(=O)OCC2CCN(CCNS(C)(=O)=O)CC2)c2ccccc21; 88
Cc1sc2c(c1C)C(c1ccc(Cl)cc1)=N[C@H](CC(=O)OC(C)(C)C)c1nnc(C)n1-2; 86

Exam item: Field request: Population Apoptotic (%) | item: Cc1ccc(OCC(O)C(C)NC(C)C)c2c1CCC2.Cl (stereo unspecified)
Marked response: 82

Exam item: Fill blank: measured Population Apoptotic (%) of the compound COc1cc2nc(N3CCN(C(=O)COc4c(OC)cccc4C(C)C)CC3)nc(N)c2cc1OC.Cl.Cl is ____.
Marked response: 88
